Cited source for all entries: ChEMBL document CHEMBL3232922

Assay: Tmax in Sprague-Dawley rat at 200 mg/kg, po
Format: ADME, organism-based
Design: dose 200 mg/kg, route oral
Settings: in vivo
Measured Quantity: Tmax

Molecule | Endpoint Value
CC(C)c1cc(N2CC[C@@H](N)C2)nc(N)n1 [JNJ-39758979] | 8 h

---

Listing of entries alongside the reported C0.
Assay: Initial plasma concentration in beagle dog at 2 mg/kg, iv
Type: ADME, organism-based, Canis lupus familiaris
Parameters: dose 2 mg/kg, route intravenous

Compound | C0
CC(C)c1cc(N2CC[C@@H](N)C2)nc(N)n1 [JNJ-39758979] | 4220 nM
Nc1nc(C2CCCC2)cc(N2CCNCC2)n1 | 1760 nM
CN[C@@H]1CCN(c2cc(Cc3ccccc3)nc(N)n2)C1 | 2500 nM

---

Assay: Tmax in mouse brain at 5 mg/kg, po administered as single dose by LC-MS/MS analysis
Type: ADME, organism-based
Parameters: dose 5 mg/kg, route oral

Compound | Readout Units | Tmax
CC(C)c1cc(N2CC[C@@H](N)C2)nc(N)n1 | h | 6

---

Experiment: Cmax in rat at 10 mg/kg, po
Type: ADME, organism-based
Design: dose 10 mg/kg, route oral
Conditions: in vivo

Compound | Readout Units | Cmax
CC(C)c1cc(N2CC[C@@H](N)C2)nc(N)n1 [JNJ-39758979] | nM | 300
CCc1cc(N2CC[C@@H](NC)C2)nc(N)n1 | nM | 1500
Nc1nc(C2CCCC2)cc(N2CCNCC2)n1 | nM | 310

---

Experiment: Cmax in Sprague-Dawley rat at 500 mg/kg, po
Format: ADME, organism-based
Set-up: dose 500 mg/kg, route oral
Conditions: in vivo
Measured Quantity: Cmax (µM)

Compound | Endpoint Value
CC(C)c1cc(N2CC[C@@H](N)C2)nc(N)n1 [JNJ-39758979] | 7.07

---

Assay: Fraction unbound in rat plasma
Assay type: ADME, cell-free

Molecule | fraction unbound
CC(C)c1cc(N2CC[C@@H](N)C2)nc(N)n1 [JNJ-39758979] | 0.83

---

Listing of entries alongside the reported bioavailability.
Assay: Oral bioavailability in Sprague-Dawley rat at 10 mg/kg
Assay type: ADME, organism-based
Settings: in vivo
Measured Quantity: bioavailability (%)

Compound | Measured Quantity | Endpoint Value
CC(C)c1cc(N2CC[C@@H](N)C2)nc(N)n1 | bioavailability | 35
Nc1nc(C2CCCC2)cc(N2CCNCC2)n1 | bioavailability | 20.7
CN[C@@H]1CCN(c2cc(Cc3ccccc3)nc(N)n2)C1 | bioavailability | 50

---

Assay: Cmax in Balb/c mouse at 5 mg/kg, po
Type: ADME, organism-based
Design: dose 5 mg/kg, route oral
Details: in vivo
Measured Quantity: Cmax

Compound | Endpoint Value
CC(C)c1cc(N2CC[C@@H](N)C2)nc(N)n1 | 790 nM

---

Test: Half life in rat liver microsomes
Assay type: ADME

Compound | half-life
CC(C)c1cc(N2CC[C@@H](N)C2)nc(N)n1 | > 2 h

---

Assay: Half life in Sprague-Dawley rat at 200 mg/kg, po
Type: ADME, organism-based
Parameters: dose 200 mg/kg, route oral
Settings: in vivo

Compound | Readout Units | half-life
CC(C)c1cc(N2CC[C@@H](N)C2)nc(N)n1 | h | 6.16

---

Molecular target: Histamine H4 receptor (Homo sapiens, UniProt Q9H3N8)
Sequence (Q9H3N8 whole entry): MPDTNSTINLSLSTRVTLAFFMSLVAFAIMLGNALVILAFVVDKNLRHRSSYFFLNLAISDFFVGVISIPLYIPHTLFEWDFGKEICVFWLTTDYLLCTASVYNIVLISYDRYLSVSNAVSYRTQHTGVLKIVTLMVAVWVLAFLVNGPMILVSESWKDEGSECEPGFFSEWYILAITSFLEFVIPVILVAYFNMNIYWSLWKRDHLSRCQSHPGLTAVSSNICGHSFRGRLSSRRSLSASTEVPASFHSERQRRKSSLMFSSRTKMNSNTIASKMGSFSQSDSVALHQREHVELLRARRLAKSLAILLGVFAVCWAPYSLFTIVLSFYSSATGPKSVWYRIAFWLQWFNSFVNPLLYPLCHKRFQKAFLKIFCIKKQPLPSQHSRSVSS
Experiment: Displacement of [3H]histamine from human recombinant histamine H4 receptor expressed in SK-N-MC cells after 45 mins by competition binding analysis
pKi: −log10 of the molar value.

Molecule | Bound Type | pKi
CN1CCN(C(=O)c2nc3cc(Cl)ccc3[nH]2)CC1 | = | 7.70
CN1CCN(C(=O)c2nc3c([nH]2)CCCC3)CC1 | = | 7.41
CN[C@@H]1CCN(c2cc(Cl)nc(N)n2)C1 | < | 5.00
CN[C@H]1CN(c2cc(C3CCCC3)nc(N)n2)C[C@@H]1O (relative stereo) | = | 7.52
Cc1cnc(OCCCCC2CCN(C)CC2)cc1-c1nc2c(C)c(F)ccc2[nH]1 | = | 8.30
CN[C@H]1CCN(c2cc(C3CCCC3)nc(N)n2)C1 | = | 7.60
Nc1nc(C2CCCC2)cc(N2C[C@H]3CNC[C@H]3C2)n1 | = | 6.48
CN[C@@H]1CCN(c2cc(C(F)(F)F)nc(N)n2)C1 | < | 5.00
CCCCc1cc(N2CC[C@@H](NC)C2)nc(N)n1 | = | 8.82
Nc1nc(C2CCCC2)cc(N2CC(N)C2)n1 | = | 8.26
CN[C@@H]1CCN(c2cc(C3CCCC3)nc(N)n2)C1 | = | 8.96
Nc1nc(Cc2ccccc2)cc(N2CC[C@@H](N)C2)n1 | = | 7.00
CN1CCN(c2cc(C3CCCC3)nc(N)n2)CC1 | = | 8.85
Nc1nc(C2CCCC2)cc(N2C[C@H]3CCN[C@H]3C2)n1 | = | 8.54
CC(C)c1cc(N2CC[C@@H](N)C2)nc(N)n1 | = | 7.90
CC(C)(C)c1cc(N2CC[C@@H](N)C2)nc(N)n1 | = | 8.03
CN[C@@H]1CCN(c2cc(C3CCCCC3)nc(N)n2)C1 | = | 8.64
CN[C@@H]1CCN(c2cc(C34CC5CC(CC(C5)C3)C4)nc(N)n2)C1 | = | 8.77
CN[C@@H]1CCN(c2nc(N)nc3c2oc2ncc(Cl)cc23)C1 | = | 8.05
Nc1nc(C2CCCC2)cc(N2CCNCC2)n1 | = | 8.92
CN1CCN(C(=O)c2cc3c([nH]2)CCCC3)CC1 | = | 7.70
Nc1nc(C2CCCC2)cc(N2C[C@H]3NCCO[C@@H]3C2)n1 (racemic) | = | 7.25
Nc1nc(C2CCCC2)cc(N2C[C@H]3CCCN[C@H]3C2)n1 | = | 8.74
CN[C@@H]1CCN(c2cc(C3CCC3)nc(N)n2)C1 | = | 8.62

---

Molecular target: Histamine H4 receptor (Homo sapiens)
Test: Antagonist activity at human histamine H4 receptor expressed in SK-N-MC cells assessed as reduction of histamine-induced inhibition of cAMP-mediated beta-galactosidase reporter gene activity treated 10 mins prior to histamine challenge by microplate reader analysis
Type: functional, cell-based
Conditions: read-out: pA2 (converted)
Listing of entries alongside the reported log10(Kb).
Measured Quantity: log10(Kb) (log10 of the value in nM)

Compound | log10(Kb)
CN1C[C@@H]2CN(c3cc(C4CCCC4)nc(N)n3)C[C@@H]2C1 | 1.30
CN1CCN(c2cc(C3CCCC3)nc(N)n2)CC1 | -0.90
Nc1nc(C2CCCC2)cc(N2CC(N)C2)n1 | 1.40
CN[C@@H]1CCN(c2cc(Cc3ccccc3)nc(N)n2)C1 | 1.00
CN[C@@H]1CCN(c2cc(C(C)C)nc(N)n2)C1 | 1.10
CC(C)c1cc(N2CC[C@@H](N)C2)nc(N)n1 | 1.10
Nc1nc(C2CCCC2)cc(N2C[C@H]3CCN[C@H]3C2)n1 | -1.00

---

Listing of entries alongside the reported EC50.
Target: UniProtKB Q9H3N8
Assay: Agonist activity at human H4 receptor
Settings: read-out: EC50
Measured Quantity: EC50

Compound | Measured Quantity | Endpoint Value
CN1C[C@@H]2CN(c3cc(C4CCCC4)nc(N)n3)C[C@@H]2C1 | EC50 | > 10 µM
CN[C@@H]1CCN(c2cc(C3CCC3)nc(N)n2)C1 | EC50 | > 10 µM
CN[C@@H]1CCN(c2cc(C3CC3)nc(N)n2)C1 | EC50 | > 10 µM
Nc1nc(C2CCCC2)cc(N2CCNCC2)n1 | EC50 | > 10 µM
CN[C@@H]1CCN(c2cc(Cc3ccccc3)nc(N)n2)C1 | EC50 | > 10 µM
CN[C@H]1CN(c2cc(C3CCCC3)nc(N)n2)C[C@@H]1O (relative stereo) | EC50 | > 10 µM
CN[C@@H]1CCN(c2nc(N)nc3c2CCCC3)C1 | EC50 | > 10 µM
CC(C)(C)c1cc(N2CC[C@@H](N)C2)nc(N)n1 | EC50 | > 10 µM
CN[C@@H]1CCN(c2cc(C3CCCCC3)nc(N)n2)C1 | EC50 | > 10 µM
Nc1nc(C2CCCC2)cc(N2CC(N)C2)n1 | EC50 | 1.3 µM
